# Tested on: P388 leukemia ip, CD2F1 mice, survival T/C
# EXPERIMENT SUMMARY: NCI In Vivo Anticancer Drug Screen. Data for tumor model P388 Leukemia (intraperitoneal) in CD2F1 (CDF1) mice
# ASSAY SETUP: endpoint: median survival time; dose: 240.0 mg/kg/injection; schedule: Q01DX005 (ip); vehicle: Klucel (hydroxypropylcellulose) (HPC); higher = longer survival
Inconclusive results and toxic doses are left out.
Documented T/C across a set of compounds

{"COMPOUND": "COc1cccc2c(=O)cc(-c3ccccc3)sc12", "T/C": "90 % of control"}
{"COMPOUND": "COc1ccc2c(c1OC)C(CC(C)=O)N1CCc3cc4c(cc3C1C2=O)OCO4 (stereo unspecified)", "T/C": "88 % of control"}
{"COMPOUND": "COc1cccc(C2(O)CCCc3c(C)ccnc32)c1 (stereo unspecified)", "T/C": "115 % of control"}
{"COMPOUND": "Cc1ncc(CO)c(/C=N/NC(=O)c2ccncc2)c1O", "T/C": "101 % of control"}
{"COMPOUND": "Cc1ncc(C(=O)O)n1Cc1ccccc1", "T/C": "93 % of control"}
{"COMPOUND": "NS(=O)(=O)Oc1ccccc1C(=O)Oc1ccccc1Cl", "T/C": "94 % of control"}
{"COMPOUND": "Cc1cc2c(cc1C)NC1=C(N2)OC(c2c3ccccc3cc3ccccc23)C1=O (stereo unspecified)", "T/C": "90 % of control"}
{"COMPOUND": "Cc1cc(=O)n2c(nc3ccccc32)o1", "T/C": "99 % of control"}
{"COMPOUND": "O=P1(C(Cl)(Cl)Cl)NNP(=O)(C(Cl)(Cl)Cl)NN1 (stereo unspecified)", "T/C": "107 % of control"}
{"COMPOUND": "CCOC(=O)Nc1cc(NC/C(=N\\O)c2ccc3ccccc3c2)c([N+](=O)[O-])c(N)n1", "T/C": "96 % of control"}
{"COMPOUND": "COC(=O)C1=C(N2CCCC2)C2c3ccccc3SC12C(=O)OC (stereo unspecified)", "T/C": "94 % of control"}
